Biological target: triiodothyronine (T3) nuclear receptor
Assay: T3 nuclear receptor binding assay (rat liver nuclei, [125I]-L-T3 displacement)
Conditions: 0.3 nM [125I]-L-T3, 22° C.
Each entry below carries its recorded IC50.

Briefly, IC50 measured for Cc1cc(NC(=O)CC(=O)O)cc(C)c1Oc1ccc(O)c(S(=O)(=O)c2ccc(F)cc2)c1 [Example 35] : ~1 nM

Per the record, Cc1cc(NC(=O)C(=O)O)cc(C)c1Oc1ccc(O)c(S(=O)(=O)c2ccc(Cl)cc2)c1 [Example 28] has IC50 of ~0.13 nM

Sure, the documented IC50 for Cc1cc(NC(=O)C(=O)O)cc(C)c1Oc1ccc(O)c(S(=O)(=O)c2ccc(F)cc2)c1 [Example 26] is ~0.17 nM

Entry under test: O=C(O)C(=O)Nc1cc(Br)c(Oc2ccc(O)c(S(=O)(=O)c3ccc(F)cc3)c2)c(Br)c1 [Example 39] . Its IC50 was ~0.04 nM
